Recorded values, source patent US20180244785A1.

systemName: T1, soluble FGFR1c receptor protein (human, UniProt P11362 141-376)
T1 sequence: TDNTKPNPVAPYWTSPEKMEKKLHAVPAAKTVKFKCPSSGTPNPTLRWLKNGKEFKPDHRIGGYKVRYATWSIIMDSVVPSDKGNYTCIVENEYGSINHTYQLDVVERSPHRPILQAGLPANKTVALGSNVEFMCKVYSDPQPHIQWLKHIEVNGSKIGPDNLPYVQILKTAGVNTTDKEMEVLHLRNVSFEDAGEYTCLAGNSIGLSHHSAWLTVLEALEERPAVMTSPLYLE
measurementDescription: BLI Octet RED96, antibody on anti-hIgG Fc tip

binder: Ab19 (antibody, human IgG2, kappa, V domains shown, format in the assays not spelled out) VH: EVQLLESGGGVVQPGRSLRLSCAASGFTFSSYAMHWVRQAPGKGLEWVAVISYDGSNKYYADSVKGRFTISRDNSKNTLSLQMNSLRVEDTAIYYCVRGAGRGFTLGPDGFDIWGQGTMVTVSS VL: DIVMTQTPLSLSVTPGQPASISCKSSRSLLHSDGKTYVYWYVQKSGQPPQLLIYELSNRFSGVPDRFSGSGSRTDFTLKISRVEAEDVGVYYCMQYIEAPLTFGGGTKVEIKR
kon / M⁻¹ s⁻¹: 91600
//
binder: Vk10 combined with the VH of Ab15 (antibody, V domains shown, captured on anti-human IgG Fc tips) VH: EVQLLESGGGVVQPGRSLRLSCAASGFTFSSYAMHWVRQAPGKGLEWVAVISYDGSNKYYADSVKGRFTISRDNSKNTLSLQMNSLRVEDTAIYYCVRGAGRGYTYGPDGFDIWGQGTMVTVSS VL: DIVMTQSPDSLAVSLGERATISCTSSRSLLHSDGKTYVYWYQQKPGQPPKLLIYELSNRFSGVPDRFSGSGSRTDFTLTISSLQAEDVAVYYCMQYIEAPLTFGGGTKVEIK
kon / M⁻¹ s⁻¹: 55200
